test: CCTE_Harrill_HTTr_Viability_MCF7: CCTE's 6-hour Cell Viability Assessment for the High-Throughput Transcriptomics (HTTr) Platform, in MCF-7 cells cultured in DMEM + 10% fetal bovine serum, Harrill Lab (AID 2284010)
Activity calls are given as the source filed them. How the source made its calls: active means hit-call score of the fitted dose curve at least 0.9, where 1 is the maximum; inactive means score below 0.9.
I would appreciate it if you answered using one of these outcomes: TRUE = active, FALSE = inactive

>>> class_label("CCCN(CCC)c1c([N+](=O)[O-])cc(C(F)(F)F)c(N)c1[N+](=O)[O-]")
"TRUE"

Just curious, what result did CCCCCOC(=O)COc1cc(N2C(=O)C3=C(CCCC3)C2=O)c(F)cc1Cl get here?
FALSE

Look up the recorded call for C#CCOC(=O)[C@@H](C)Oc1ccc(Oc2ncc(Cl)cc2F)cc1 in this test.
FALSE

Assay outcome for N[C@@H](Cc1cc(I)c(Oc2ccc(O)c(I)c2)c(I)c1)C(=O)O : what was it?
FALSE

Recorded test outcome, item CCOC(=O)COc1cc(-n2ncc(C(F)(F)F)c(C)c2=O)c(F)cc1Cl
FALSE

###

molecular target: Oxysterols receptor LXR-alpha (Homo sapiens); test: ATG_LXRa_TRANS: Attagene TRANS-FACTORIAL HepG2 Assay for human Liver X Receptor alpha (LXRa) (AID 2282980); conditions: HepG2 Attagene TRANS reporter, LXRa transactivation
Records with an inconclusive call do not appear. Activity calls are given as the source filed them. Rule for the calls: active = hit-call score of the fitted dose curve at least 0.9, where 1 is the maximum; inconclusive = response in the unintended direction; inactive = score below 0.9.
Choose the fitting class; nothing outside label 1 = active, label 0 = inactive is accepted.

Hey, what did the test say about CCOC(=O)NCCOc1ccc(Oc2ccccc2)cc1 ?
label 0

What is the recorded call for this molecule in the test? c1ccc2[nH]c(-c3cscn3)nc2c1
label 1

What classification did CCOC(=O)COc1cc(-n2ncc(C(F)(F)F)c(C)c2=O)c(F)cc1Cl end up with in this test?
label 0

Dear all, I need the recorded test outcome for COCCO , thank you.
label 0

Record lookup: outcome of this test for N[C@@H](Cc1cc(I)c(Oc2ccc(O)c(I)c2)c(I)c1)C(=O)O ?
label 0

// param item: CC1(C)C(C=C(Cl)Cl)C1C(=O)OCc1cccc(Oc2ccccc2)c1 (stereo unspecified) ; yields the recorded call
label 0

###

assay: CCTE_Shafer_MEA_acute_burst_number: CCTE's Neural Acute Assay for Single-Electrode Bursts, Shafer Lab (AID 2284013)
Calls of active or inactive are those of the source. Rule for the calls: active = hit-call score of the fitted dose curve at least 0.9, where 1 is the maximum; inactive = score below 0.9.
Tick one outcome: active, inactive

Some entries whose results are on file:
>>> class_label("C=CCOC(Cn1ccnc1)c1ccc(Cl)cc1Cl (stereo not drawn)")
"active"
>>> class_label("O=C(c1ccc(O)cc1O)c1ccc(O)cc1O")
"inactive"
>>> class_label("OB(O)O")
"inactive"

Hi team, can someone confirm the assay call for CCCCC(CC)CN1C(=O)C2C3C=CC(C3)C2C1=O (stereo not drawn) ?
inactive

I'd appreciate the recorded outcome for CCNc1nc(N)nc(Cl)n1 from this test.
inactive

Recorded test outcome, item CSC(=O)c1cccc2nnsc12
inactive

Hi team, can someone confirm the assay call for O=C(c1ccccc1)C1CCCCC1 ?
inactive

Hello, I am checking results. What call was entered for CC(C)(C)[C@@H](O)[C@@H](Cc1ccc(Cl)cc1)n1cncn1 ?
inactive

###

assay: CCTE_Shafer_MEA_dev_AB: CCTE's Alamar Blue Assay for Cytotoxicity in the Neural Network Formation Assay, Shafer Lab (AID 2284083);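 further: resazurin reduction fluorescence as viability of cultured neurons; twelve days of exposure from plating with re-dosing on DIV 5 and 9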
Records with an inconclusive call do not appear. Active and inactive are the calls of the source. The calls were made as follows: active = hit-call score of the fitted dose curve at least 0.9, where 1 is the maximum; inconclusive = response in the unintended direction; inactive = score below 0.9.
Answer with one of the outcomes active, inactive

Observe how each entry below is paired with its result.
>>> class_label("CSC(=O)c1cccc2nnsc12")
"inactive"
>>> class_label("CCCCC(CC)CN1C(=O)C2C3C=CC(C3)C2C1=O (configuration not stated)")
"inactive"
>>> class_label("S=C([S-])NCCNC(=S)[S-].[Mn+2]")
"inactive"
>>> class_label("C#CCOC(=O)[C@@H](C)Oc1ccc(Oc2ncc(Cl)cc2F)cc1")
"active"
>>> class_label("S=C(S)NCCNC(=S)S.[Mn+2].[S-]C([S-])=NCCN=C([S-])[S-].[Zn+2]")
"inactive"

Field: outcome | Entry: Cc1nn(C)c(Oc2ccccc2)c1C=NOCc1ccc(C(=O)OC(C)(C)C)cc1
active

Call for entry CCCCOCCOCCOCc1cc2c(cc1CCC)OCO2 :
inactive
